biological target: RXRα (Homo sapiens, UniProt P19793); assay: holoreceptor transactivation assay, RXRα; conditions: holoreceptor assay; read-out: RXR Trans. EC50 α
Sequence (P19793 whole entry): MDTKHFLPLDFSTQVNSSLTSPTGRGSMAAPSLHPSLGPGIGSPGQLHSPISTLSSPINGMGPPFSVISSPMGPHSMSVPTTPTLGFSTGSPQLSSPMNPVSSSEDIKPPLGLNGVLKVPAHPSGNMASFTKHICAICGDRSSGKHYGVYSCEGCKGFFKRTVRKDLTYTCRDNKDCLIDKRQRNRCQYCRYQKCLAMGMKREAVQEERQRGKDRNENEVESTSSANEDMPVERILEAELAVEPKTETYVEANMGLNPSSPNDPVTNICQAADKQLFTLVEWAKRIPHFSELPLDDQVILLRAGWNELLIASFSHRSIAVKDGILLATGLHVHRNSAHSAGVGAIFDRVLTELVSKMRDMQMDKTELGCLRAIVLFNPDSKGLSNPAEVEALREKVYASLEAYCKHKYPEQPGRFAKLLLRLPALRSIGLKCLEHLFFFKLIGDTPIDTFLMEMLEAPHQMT
Here the recorded EC50 is given for each entry.

[
  {
    "structure-smiles-string": "CC/C(=C(F)/C=C/C(C)=C(\\F)C(=O)O)c1cc2c(cc1OCOC)C(C)(C)CCC2(C)C",
    "value-units": "nM",
    "EC50": 9
  },
  {
    "structure-smiles-string": "CCOc1cc2c(cc1\\C(CC)=C(F)/C=C/C(C)=C(\\F)C(=O)O)C(C)(C)CCC2(C)C",
    "value-units": "nM",
    "EC50": 4
  },
  {
    "structure-smiles-string": "CCCOc1cc2c(cc1\\C(C)=C(F)/C=C/C(C)=C(\\F)C(=O)O)C(C)(C)CCC2(C)C",
    "value-units": "nM",
    "EC50": 3
  }
]

---

molecular target: RXRα (Homo sapiens); construct: expressed in transfected cells; test: holoreceptor transactivation assay, RXRα; assay type: cell-based; conditions: efficacy as a percentage compared to the standard compound
We begin with a simple list: items and their reported RXR Trans. efficacy α.
measured-parameter: RXR Trans. efficacy α (%)

[
  {
    "compound": "CCOc1cc2c(cc1\\C(CC)=C(F)/C=C/C(C)=C(\\F)C(=O)O)C(C)(C)CCC2(C)C [Compound 27]",
    "assay-system": "RXRα (Homo sapiens)",
    "recorded-value": 30
  },
  {
    "compound": "CCCOc1cc2c(cc1\\C(C)=C(F)/C=C/C(C)=C(\\F)C(=O)O)C(C)(C)CCC2(C)C [Compound 11]",
    "assay-system": "RXRα (Homo sapiens)",
    "recorded-value": 7
  },
  {
    "compound": "CC(/C=C/[C@@H]1C[C@]1(C)c1ccc2c(c1)C(C)(C)CCC2(C)C)=C\\C(=O)O [Standard compound]",
    "assay-system": "RXRα (Homo sapiens)",
    "recorded-value": 100
  },
  {
    "compound": "CC/C(=C(F)/C=C/C(C)=C(\\F)C(=O)O)c1cc2c(cc1OCOC)C(C)(C)CCC2(C)C [Compound 21]",
    "assay-system": "RXRα (Homo sapiens)",
    "recorded-value": 41
  }
]
